# System: HCT-116
# protocol.description: NCI tumour cell line growth inhibition, 48 h
The source made the active and inactive calls. Cut-off read from the data, not from the text of the source: active = GI50 up to about 1.1 µM and inactive = higher.
measured.quantity: GI50

See these solved cases before continuing.
1) CC1C[C@]2(C)C(=O)Nc3ccccc3[C@@H]2Nc2ccccc21 (some centres undefined); 16.1 µM (inactive)
2) CCOC(=O)Cc1nc(/C(C#N)=C/c2ccco2)[nH]c(=O)c1C#N; > 100 µM (inactive)
3) C[C@]12CC[C@H](O)CC1=CC[C@@H]1[C@@H]2CC[C@]2(C)C(=O)/C(=C/c3ccc([N+](=O)[O-])cc3)C[C@@H]12; 13.7 µM (inactive)

Query string: Tell me its GI50 given C#CC1(O)CCC2C3CCc4cc(Oc5nc(F)nc(-c6c7ccccc7c7sc8ccccc8n67)n5)ccc4C3CC[C@@]21C (some centres undefined) as the entry.
Result string: > 100 µM (inactive)

Source listed as ChEMBL document CHEMBL1201862.
